Molecular target: UniProtKB P00748
Sequence (P00748 373-615 limits assumed): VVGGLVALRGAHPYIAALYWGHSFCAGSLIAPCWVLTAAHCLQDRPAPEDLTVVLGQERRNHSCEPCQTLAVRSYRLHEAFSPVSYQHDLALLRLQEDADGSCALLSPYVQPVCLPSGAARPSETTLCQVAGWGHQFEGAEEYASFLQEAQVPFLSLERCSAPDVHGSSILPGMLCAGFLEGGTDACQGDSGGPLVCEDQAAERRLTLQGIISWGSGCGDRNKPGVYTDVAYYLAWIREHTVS
Sequence (P00748 20-372 partner limits assumed): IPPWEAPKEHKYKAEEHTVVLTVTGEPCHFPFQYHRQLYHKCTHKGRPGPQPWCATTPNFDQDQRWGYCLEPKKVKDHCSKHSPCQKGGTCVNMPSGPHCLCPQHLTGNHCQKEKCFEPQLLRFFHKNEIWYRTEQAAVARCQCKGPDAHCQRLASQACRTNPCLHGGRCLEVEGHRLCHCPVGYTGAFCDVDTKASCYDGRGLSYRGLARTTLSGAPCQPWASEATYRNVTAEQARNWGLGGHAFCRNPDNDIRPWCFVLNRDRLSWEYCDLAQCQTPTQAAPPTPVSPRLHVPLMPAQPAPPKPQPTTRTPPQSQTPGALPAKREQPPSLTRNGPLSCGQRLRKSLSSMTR
readout_kind: Ki

Solved entries (count: 2):
1. COc1ccc(C[C@@H]2C[C@@H](C(=O)NCc3ccc4c(c3)nnn4C)N(C(=O)C3NCCc4cc(Cl)ccc43)C2)cc1 (stereo partly drawn)    200 to 2000 nM
2. Cn1nnc2cc(CNC(=O)[C@@H]3C[C@@H](Cc4ccncc4)CN3C(=O)[C@@H](CCC(=O)N3CCCC3)NCCC(F)(F)F)ccc21    > 2000 nM

Query: For the molecule shown here, "Cn1nnc2cc(CNC(=O)[C@@H]3C[C@@H](Cc4ccncc4)CN3C(=O)[C@@H](CCC(=O)N3CCCC3)NS(=O)(=O)c3ccccc3)ccc21" , give the reported Ki.
Reply: > 2000 nM

----------
target: FXa (Homo sapiens); assay: Determination of selectivity: FXa inhibition, chromogenic substrate S2765 assay; type: biochemical; settings: fold selectivity for FXIIa over FXa
Sequence (P00742 235-488 limits assumed): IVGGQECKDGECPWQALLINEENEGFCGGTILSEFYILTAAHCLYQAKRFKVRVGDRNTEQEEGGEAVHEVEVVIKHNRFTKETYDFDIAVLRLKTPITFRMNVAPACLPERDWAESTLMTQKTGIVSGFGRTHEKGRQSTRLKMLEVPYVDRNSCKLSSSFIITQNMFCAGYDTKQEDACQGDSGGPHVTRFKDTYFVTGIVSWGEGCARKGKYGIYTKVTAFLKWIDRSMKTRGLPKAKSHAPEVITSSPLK
Sequence (P00742 41-179 partner limits assumed): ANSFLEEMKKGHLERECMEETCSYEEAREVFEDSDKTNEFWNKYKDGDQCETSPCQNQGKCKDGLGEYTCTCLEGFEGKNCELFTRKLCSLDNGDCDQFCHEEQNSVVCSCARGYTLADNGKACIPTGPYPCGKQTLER
readout_kind: FXa (human)/FXIIa alpha (human)

1) NCc1ccc(CNC(=O)[C@@H]2C[C@@H](Cc3ccncc3)CN2C(=O)[C@H](N)CCc2ccccc2)cc1    ∘∘∘
2) CCOc1ccc(C[C@@H]2C[C@@H](C(=O)NCc3ccc4c(c3)nnn4C)N(C(=O)[C@H]3C[C@@H](c4ccccc4)CN3)C2)cc1    ∘∘∘
3) Cn1nnc2cc(CNC(=O)[C@@H]3C[C@H](N)CN3C(=O)[C@H](N)CCc3ccccc3)ccc21    ∘∘
4) COc1ccc(C[C@@H]2C[C@@H](C(=O)NCc3ccc4c(c3)nnn4C)N(C(=O)[C@H]3CC(c4cccnc4C(F)(F)F)CN3)C2)cc1 (stereo partly drawn)    ∘∘∘
5) COc1ccc(C[C@@H]2C[C@@H](C(=O)NCc3ccc4c(c3)nnn4C)N(C(=O)[C@H](N)CCC(=O)N3CCNCC3)C2)cc1    ∘∘∘

Query: For the molecule shown here, "CN(C)[C@H](CCC(=O)N1CCCC1)C(=O)N1C[C@H](Cc2cccnc2)C[C@H]1C(=O)NCc1ccc2c(c1)nnn2C" , give the reported FXa (human)/FXIIa alpha (human).
Reply: ∘∘∘
